Measurement target: UniProtKB P08684
Sequence (P08684 whole entry): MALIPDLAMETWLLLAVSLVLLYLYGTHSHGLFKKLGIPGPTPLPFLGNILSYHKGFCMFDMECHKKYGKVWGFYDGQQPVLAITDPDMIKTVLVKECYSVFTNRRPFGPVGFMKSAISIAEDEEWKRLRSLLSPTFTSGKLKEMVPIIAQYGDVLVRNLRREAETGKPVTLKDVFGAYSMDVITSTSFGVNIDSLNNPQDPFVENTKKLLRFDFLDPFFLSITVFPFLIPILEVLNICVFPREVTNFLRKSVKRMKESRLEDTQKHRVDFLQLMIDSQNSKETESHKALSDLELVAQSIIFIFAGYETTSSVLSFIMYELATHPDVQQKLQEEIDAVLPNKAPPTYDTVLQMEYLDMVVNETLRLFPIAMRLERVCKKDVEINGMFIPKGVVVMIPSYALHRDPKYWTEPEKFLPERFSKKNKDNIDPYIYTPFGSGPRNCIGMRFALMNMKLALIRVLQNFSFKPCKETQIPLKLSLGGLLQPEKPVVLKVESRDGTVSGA
Experimental parameters: Potency;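 further: confirmatory qHTS run detecting inhibitors and substrates of CYP3A4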
Measured property: AC50

Please look up its AC50: CC(=O)N1CC=CC1(C)C(=O)NCC1CC1 (configuration not stated)
31.6 µM (inconclusive)

Try Cc1nc2sccn2c(=O)c1CCN1CCC(=C(c2ccc(F)cc2)c2ccc(F)cc2)CC1 next.
20 µM (inconclusive)

Same thing, different compound: NC(=O)/N=N/C(N)=O [E927A]
31.6 µM (inconclusive)

Would you mind doing CCCn1c(-c2ccc(F)cc2)nc2c(NCCCN(CC)CC)nc(C)nc21 as well?
20 µM (inconclusive)

Cool, now Cn1c(N)c(C(=O)COC(=O)c2cc(C3CC3)nc3ccccc23)c(=O)n(C)c1=O
39.8 µM (inconclusive)

Entry to check: CC(=O)OC[C@@]1(O)C[C@]23CCC4c5ccoc5CC[C@@]4(C)C2CCC1C3 (some centres not stated)
31.6 µM (inconclusive)

Cool, now COc1cc2ccc(=O)oc2c(O)c1OCC=C(C)C
12.6 µM (inconclusive)
